All values here come from the RNAGym collection of RNA variant scans (doi:10.7554/elife.80360).

B1: CPEB3 Ribozyme (parent)
chain: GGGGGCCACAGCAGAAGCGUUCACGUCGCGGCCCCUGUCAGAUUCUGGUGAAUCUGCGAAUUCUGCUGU

Variants of: B1
Run description: self-cleavage, relative activity (ratio to wild type); higher = more cleavage; co-transcriptional
Recorded self-cleavage split into classes bin 0 (below 0.2), bin 1 (0.2 to below 0.6), bin 2 (0.6 or more)

{"Construct sequence": "GGGGGCCACAGCAGAAGCGUUCAGGUCGCGGCCCCUGUCAGAUUCUGGUGAACCUGCGAAUUCUGCUGU [C24G U53C]", "Category label": "bin 1"}
{"Construct sequence": "GGUGGCCGCAGCAGAAGCGUUCACGUCGCGGCCCCUGUCAGAUUCUGGUGAAUCUGCGAAUUCUGCUGU [G3U A8G]", "Category label": "bin 0"}
{"Construct sequence": "GGGGGCCACAGCAGAAGCGUUCACGUCGCGGGCCCUGUUAGAUUCUGGUGAAUCUGCGAAUUCUGCUGU [C32G C39U]", "Category label": "bin 1"}
{"Construct sequence": "UGGGGCCACAGCAGAAGCGUUCACGUCGCGGCCCCUGUCAGAUUCUGGUGUAUCUGCGAAUUCUGCUGU [G1U A51U]", "Category label": "bin 0"}
{"Construct sequence": "GGCGGCCACAGCAGAAGCGUUCACGUCGCGGCCCCUGUCAGAUUCUGGUGAUUCUGCGAAUUCUGCUGU [G3C A52U]", "Category label": "bin 0"}
{"Construct sequence": "GGGUGCCACAGCAGAAGCGUUCACGUCGCGGCCCCUGUCAGAUUCUGAUGAAUCUGCGAAUUCUGCUGU [G4U G48A]", "Category label": "bin 2"}
{"Construct sequence": "GGGGGCCACAGCAGGAGCGUUCACGUCGCGGCCCCUGUCAGAUUCUGGUGAAUCUGCGAAUUCUUCUGU [A15G G65U]", "Category label": "bin 2"}
{"Construct sequence": "GGGGGCCACAGCAGAAGCGUUAACGUCGCGGCCCCUGUCAGAUUCUGGUGAAUCUGGGAAUUCUGCUGU [C22A C57G]", "Category label": "bin 0"}
{"Construct sequence": "GGGGGCCACAGCAGAAGCGUUCACGUCGCGGCCCCUGUCAGAUUCUGGUGAAUCUGGGAAAUCUGCUGU [C57G U61A]", "Category label": "bin 1"}
{"Construct sequence": "GGGGGACACAGCAGAAGCGUUCACGUCGCGGCCCCUGUCAGAUUCUGGUGAAUCUGUGAAUUCUGCUGU [C6A C57U]", "Category label": "bin 0"}
{"Construct sequence": "GGGGGCCACAGCAGAAGCGUUCACGUCGCGGCCCCUGUCAGAUUCUGAUGAAUCUGCGAAUUCUUCUGU [G48A G65U]", "Category label": "bin 2"}
{"Construct sequence": "GCGGGCCACAGCAGAAGCGUUCACGUCGCGGCCCCUGUCAGAUUCUGGUUAAUCUGCGAAUUCUGCUGU [G2C G50U]", "Category label": "bin 0"}
{"Construct sequence": "GGGGGCCACAGCAGAAGCGUUCACGUCGCGGCCCCUGUCAGAUCCUGGUGAAUCUGCGAAUCCUGCUGU [U44C U62C]", "Category label": "bin 1"}
{"Construct sequence": "GGGGGCCACAGCAGAAGCGUUCACGUCGCGGCCCCUGUCAGAUUCUGGUGAAUCUACGACUUCUGCUGU [G56A A60C]", "Category label": "bin 1"}
{"Construct sequence": "GGGGGCCACAACAGACGCGUUCACGUCGCGGCCCCUGUCAGAUUCUGGUGAAUCUGCGAAUUCUGCUGU [G11A A16C]", "Category label": "bin 0"}
{"Construct sequence": "GGGGGCCACAGCAGAACCGUUCACGUCGCGGCCCCUGUCAGAUUCUGGUGAAUCUGCUAAUUCUGCUGU [G17C G58U]", "Category label": "bin 1"}
{"Construct sequence": "GGGGGCCACAGCAGAAGCGUUCACGUCGCGGCCCCUGUCAGACUCUGGUGAAUCUGCGAUUUCUGCUGU [U43C A60U]", "Category label": "bin 1"}
{"Construct sequence": "GGGGGCCACAGCAGAAGCGUUCAGGUCGCGGCCCCUGUCAGAUCCUGGUGAAUCUGCGAAUUCUGCUGU [C24G U44C]", "Category label": "bin 1"}
{"Construct sequence": "GGGGGCCACAUCAGAAGCGUUCACGUCGCGGCCCCUGUCAGAUUCUGGUGAAUCUGCGAAUCCUGCUGU [G11U U62C]", "Category label": "bin 1"}
{"Construct sequence": "GGGGGCCACAGCAGAAGCGUUCACGUCGCGGCCCCUGUCAGAUUCUGGAGAAUCUGCGAAUUCUGAUGU [U49A C66A]", "Category label": "bin 2"}
{"Construct sequence": "GGGGGCCACAGCAAAAGCGUUCACGUCGCGGCCCCUGUCAGAUUCUGGUGAAUCUGCGAAUACUGCUGU [G14A U62A]", "Category label": "bin 1"}
{"Construct sequence": "GGGGGCCACAGCAGAAGCGUUCACGUCGCGGCCCCCGUCAGAUUCUGGUGAAUAUGCGAAUUCUGCUGU [U36C C54A]", "Category label": "bin 2"}
{"Construct sequence": "GGGGGCCACAGCAGAAGCGUUCACGUCGCGGCUCCUGUCAGAUUCUGGUGAAUCUGCGAAUUUUGCUGU [C33U C63U]", "Category label": "bin 2"}
{"Construct sequence": "GGGGGCCACAGCAGAAGCGUUCACGUCGCGGCCCCUGUCUGAUUCUGGUGAAUCUGCGAAUUCUGCUAU [A40U G68A]", "Category label": "bin 2"}
{"Construct sequence": "GGGGGCCACAGCAGAAGCGUACACGUCGCGGCCCCUGUCAGAUUCUGGUCAAUCUGCGAAUUCUGCUGU [U21A G50C]", "Category label": "bin 2"}
{"Construct sequence": "GGGGGCCACAGCAGAAGCGUUAACGUCGCGGCCCCUGUCAGAUUCUGGUGAAUCUGCGAAUUCUUCUGU [C22A G65U]", "Category label": "bin 1"}
{"Construct sequence": "GUGGGCCACAGCAGAAGCGUUCACGUCGCGGCCCCUGUCAGAUUAUGGUGAAUCUGCGAAUUCUGCUGU [G2U C45A]", "Category label": "bin 0"}
{"Construct sequence": "GGGGGCCACAGCAGUAGCGUUCACGUCGCGACCCCUGUCAGAUUCUGGUGAAUCUGCGAAUUCUGCUGU [A15U G31A]", "Category label": "bin 1"}
{"Construct sequence": "GGGGGCCACAGCAGAAGCGUUUACGUCGCGGCCCCUGUCAGAUUCUGGUGAAACUGCGAAUUCUGCUGU [C22U U53A]", "Category label": "bin 0"}
{"Construct sequence": "GGGGGCCACAGCAGUAGCGUUCACGUCGCGGCCCCUGUCAUAUUCUGGUGAAUCUGCGAAUUCUGCUGU [A15U G41U]", "Category label": "bin 1"}
{"Construct sequence": "GGGGGCCACAGCAGAAGCGUUCACGUCGCGGCCCCUGUACGAUUCUGGUGAAUCUGCGAAUUCUGCUGU [C39A A40C]", "Category label": "bin 2"}
{"Construct sequence": "GGGCGCCACAGCAGAAGCGUUCACGUCGCGGCCCCUGUCAGAUUAUGGUGAAUCUGCGAAUUCUGCUGU [G4C C45A]", "Category label": "bin 1"}
{"Construct sequence": "GGGGGUCACAGCAGAAGCGUUCACGUCGCGGCUCCUGUCAGAUUCUGGUGAAUCUGCGAAUUCUGCUGU [C6U C33U]", "Category label": "bin 2"}
{"Construct sequence": "GGGGGCCACAGCAAAAGCGUUCACAUCGCGGCCCCUGUCAGAUUCUGGUGAAUCUGCGAAUUCUGCUGU [G14A G25A]", "Category label": "bin 0"}
{"Construct sequence": "GGGGGCCACAGUAGAAGCGUUCACGUCGCAGCCCCUGUCAGAUUCUGGUGAAUCUGCGAAUUCUGCUGU [C12U G30A]", "Category label": "bin 2"}
{"Construct sequence": "GGGGGCCACAGCAGAAGCGUUCACGUCGCGGACCAUGUCAGAUUCUGGUGAAUCUGCGAAUUCUGCUGU [C32A C35A]", "Category label": "bin 1"}
{"Construct sequence": "GGGGGCCACAGCAGAAGCGUUCACGUCGCGGCCCCUGUCAGAUUCUGGUUAAUCUGCGAACUCUGCUGU [G50U U61C]", "Category label": "bin 2"}
{"Construct sequence": "GGGGGCCACAGCACAAGCGUUCACGUCACGGCCCCUGUCAGAUUCUGGUGAAUCUGCGAAUUCUGCUGU [G14C G28A]", "Category label": "bin 0"}
{"Construct sequence": "GGUGGCCACAGCAGAAGCGUUCACGUCGCGGCCCCUGGCAGAUUCUGGUGAAUCUGCGAAUUCUGCUGU [G3U U38G]", "Category label": "bin 0"}
{"Construct sequence": "GGGCGCCACAGCAGAAGCGUUCACGUCGCGGCCCCUGUCAGAUUCUGGUGAAUCUACGAAUUCUGCUGU [G4C G56A]", "Category label": "bin 1"}
{"Construct sequence": "CGGGGCCACAGCAGAAGCGUUCACGUCGCGGCCCCUGUCGGAUUCUGGUGAAUCUGCGAAUUCUGCUGU [G1C A40G]", "Category label": "bin 1"}
{"Construct sequence": "GGCGGCCACAGUAGAAGCGUUCACGUCGCGGCCCCUGUCAGAUUCUGGUGAAUCUGCGAAUUCUGCUGU [G3C C12U]", "Category label": "bin 0"}
{"Construct sequence": "GGGGGCCACAGCAGAAGCGUUCACGUCGCGGCCUCUGUCAGAUUCUGGUGCAUCUGCGAAUUCUGCUGU [C34U A51C]", "Category label": "bin 2"}
{"Construct sequence": "GGGGGCCACAGCAGAAGCGUUCACGUCGCGGCCCCUGUCACAUUCUGGUGAAUCUGCGAAUUCUGCUGG [G41C U69G]", "Category label": "bin 2"}
{"Construct sequence": "GGGGGCCACAGCAGAAGCGUACACGUCGCGACCCCUGUCAGAUUCUGGUGAAUCUGCGAAUUCUGCUGU [U21A G31A]", "Category label": "bin 2"}
{"Construct sequence": "GGGGGCCACAGCAGAAGCGUGCACGUCGCGGCCCCUGUCAGAUUCUGGUGAACCUGCGAAUUCUGCUGU [U21G U53C]", "Category label": "bin 1"}
